The reported measurements were obtained from patent US9993494B2.

- System: normal human lung fibroblasts
- assayOverview: Ribosomal profiling: translational efficiency in TGFβ-treated fibroblasts
- Assay type: cell-based
- conditionDescription: ENSG00000063177; TGFβ-treated fibroblasts
parameter: renormalizing the translational profile of RPL18

Record excerpt, results attached:
compound: Cc1cc(C2CCCCC2)n(O)c(=O)c1.NCCO [CPX, ciclopirox oloamine]
valueReported: − (− = <0.9)
//
compound: CC(C=CC(=O)NO)=CC(C)C(=O)c1ccc(N(C)C)cc1 (centres unmarked) [TSA]
valueReported: − (− = <0.9)
//
compound: CC(C)n1nc(-c2cc3cc(O)ccc3[nH]2)c2c(N)ncnc21 [PP242]
valueReported: + (+ = 0.9 to 1.5)
//
compound: COC(=O)[C@H]1[C@@H](O)[C@@]2(O)c3c(OC)cc(O[C@@H]4O[C@@H]([C@H](O)CO)CO[C@H]4OC)cc3O[C@@]2(c2ccc(OC)cc2)[C@@H]1c1ccccc1 [Silvestrol]
valueReported: − (− = <0.9)

Next item in the queue.
Task: Supply recorded renormalizing the translational profile of RPL18 for Cc1ccc(=O)n(-c2ccccc2)c1 [pirfenidone, 5-methyl-1-phenylpyridin-2-one] here.
Result: + (+ = 0.9 to 1.5)

====

- Tested on: normal human lung fibroblasts
- assayOverview: Ribosomal profiling: translational efficiency in TGFβ-treated fibroblasts
- Format: cell-based
- conditionDescription: ENSG00000088367; TGFβ-treated fibroblasts
parameter: renormalizing the translational profile of EPB41L1

Guide cases for renormalizing the translational profile of EPB41L1, answers given:
compound: Cc1cc(C2CCCCC2)n(O)c(=O)c1.NCCO
valueReported: − (− = <0.9)

compound: Cc1ccc(=O)n(-c2ccccc2)c1
valueReported: − (− = <0.9)

compound: COC(=O)[C@H]1[C@@H](O)[C@@]2(O)c3c(OC)cc(O[C@@H]4O[C@@H]([C@H](O)CO)CO[C@H]4OC)cc3O[C@@]2(c2ccc(OC)cc2)[C@@H]1c1ccccc1
valueReported: + (+ = 0.9 to 1.5)

compound: CC(C)n1nc(-c2cc3cc(O)ccc3[nH]2)c2c(N)ncnc21
valueReported: − (− = <0.9)

Now consider the entry below.
Task: Quote normal human lung fibroblasts renormalizing the translational profile of EPB41L1 for entry CC(C=CC(=O)NO)=CC(C)C(=O)c1ccc(N(C)C)cc1 (centres unmarked) .
Result: + (+ = 0.9 to 1.5)

====

- Tested on: normal human lung fibroblasts
- assayOverview: Ribosomal profiling: translational efficiency in TGFβ-treated fibroblasts
- Type: cell-based
- conditionDescription: gene SPATA6 (ENSG00000132122); TGFβ-treated fibroblasts
- Description: Ribosomal profiling allows for measurement of changes in transcription and translation on a genome-wide basis accompanying TGFβ-dependent transformation of fibroblasts to myofibroblasts. Ribosomal profiles of the TGFβ-treated fibroblasts from Example 1 (about 6×10^6 cells/10 cm plate) were prepared and analyzed for changes in translational efficiencies with respect to potential disease-associated cellular changes accompanying this TGFβ-induced transformation. […]
parameter: effect in renormalizing the translational profile of the gene

// worked examples, effect in renormalizing the translational profile of the gene included
compound: CC(C)n1nc(-c2cc3cc(O)ccc3[nH]2)c2c(N)ncnc21
valueReported: + (+ = 0.9 to 1.5)

compound: Cc1ccc(=O)n(-c2ccccc2)c1
valueReported: + (+ = 0.9 to 1.5)

compound: CC(C=CC(=O)NO)=CC(C)C(=O)c1ccc(N(C)C)cc1 (centres unmarked)
valueReported: − (− = <0.9)

compound: COC(=O)[C@H]1[C@@H](O)[C@@]2(O)c3c(OC)cc(O[C@@H]4O[C@@H]([C@H](O)CO)CO[C@H]4OC)cc3O[C@@]2(c2ccc(OC)cc2)[C@@H]1c1ccccc1
valueReported: − (− = <0.9)

Consider now this further compound.
Task: Give effect in renormalizing the translational profile of the gene for the following compound: `Cc1cc(C2CCCCC2)n(O)c(=O)c1.NCCO`
Result: − (− = <0.9)

====

- Test system: normal human lung fibroblasts
- assayOverview: Ribosomal profiling: translational efficiency in TGFβ-treated fibroblasts
- Type: cell-based
- conditionDescription: ENSG00000049130; TGFβ-treated fibroblasts
parameter: renormalizing the translational profile of KITLG

compoundStructure: Cc1ccc(=O)n(-c2ccccc2)c1
valueReported: − (− = <0.9)
--
compoundStructure: Cc1cc(C2CCCCC2)n(O)c(=O)c1.NCCO
valueReported: − (− = <0.9)
--
compoundStructure: COC(=O)[C@H]1[C@@H](O)[C@@]2(O)c3c(OC)cc(O[C@@H]4O[C@@H]([C@H](O)CO)CO[C@H]4OC)cc3O[C@@]2(c2ccc(OC)cc2)[C@@H]1c1ccccc1
valueReported: − (− = <0.9)

====

- Tested on: normal human lung fibroblasts
- assayOverview: Ribosomal profiling: translational efficiency in TGFβ-treated fibroblasts
- Format: cell-based
- conditionDescription: ENSG00000132510; TGFβ-treated fibroblasts
parameter: renormalizing the translational profile of KDM6B

compound: Cc1cc(C2CCCCC2)n(O)c(=O)c1.NCCO [CPX, ciclopirox oloamine]
valueReported: − (− = <0.9)
//
compound: Cc1ccc(=O)n(-c2ccccc2)c1 [pirfenidone, 5-methyl-1-phenylpyridin-2-one]
valueReported: − (− = <0.9)
//
compound: CC(C=CC(=O)NO)=CC(C)C(=O)c1ccc(N(C)C)cc1 (stereo not shown) [TSA]
valueReported: − (− = <0.9)

====

- System: normal human lung fibroblasts
- assayOverview: Ribosomal profiling: translational efficiency in TGFβ-treated fibroblasts
- Format: cell-based
- conditionDescription: ENSG00000186184; TGFβ-treated fibroblasts
parameter: renormalizing the translational profile of POLR1D

Answered cases to consult:
molecule: CC(C=CC(=O)NO)=CC(C)C(=O)c1ccc(N(C)C)cc1 (centres unmarked)
valueReported: − (− = <0.9)
--
molecule: COC(=O)[C@H]1[C@@H](O)[C@@]2(O)c3c(OC)cc(O[C@@H]4O[C@@H]([C@H](O)CO)CO[C@H]4OC)cc3O[C@@]2(c2ccc(OC)cc2)[C@@H]1c1ccccc1
valueReported: − (− = <0.9)
--
molecule: Cc1ccc(=O)n(-c2ccccc2)c1
valueReported: − (− = <0.9)
--
molecule: Cc1cc(C2CCCCC2)n(O)c(=O)c1.NCCO
valueReported: − (− = <0.9)

Query molecule follows.
Task: Report measured renormalizing the translational profile of POLR1D; entry is `CC(C)n1nc(-c2cc3cc(O)ccc3[nH]2)c2c(N)ncnc21`
Result: − (− = <0.9)

====

- Test system: normal human lung fibroblasts
- assayOverview: Ribosomal profiling: translational efficiency in TGFβ-treated fibroblasts
- Type: cell-based
- conditionDescription: ENSG00000063046; TGFβ-treated fibroblasts
parameter: renormalizing the translational profile of EIF4B

Below: 4 molecules and their reported renormalizing the translational profile of EIF4B.
molecule: CC(C)n1nc(-c2cc3cc(O)ccc3[nH]2)c2c(N)ncnc21
valueReported: + (+ = 0.9 to 1.5)

molecule: COC(=O)[C@H]1[C@@H](O)[C@@]2(O)c3c(OC)cc(O[C@@H]4O[C@@H]([C@H](O)CO)CO[C@H]4OC)cc3O[C@@]2(c2ccc(OC)cc2)[C@@H]1c1ccccc1
valueReported: − (− = <0.9)

molecule: CC(C=CC(=O)NO)=CC(C)C(=O)c1ccc(N(C)C)cc1 (centres unmarked)
valueReported: + (+ = 0.9 to 1.5)

molecule: Cc1cc(C2CCCCC2)n(O)c(=O)c1.NCCO
valueReported: − (− = <0.9)

Task: Answer with the recorded renormalizing the translational profile of EIF4B of `Cc1ccc(=O)n(-c2ccccc2)c1` only.
Result: + (+ = 0.9 to 1.5)

====

- System: normal human lung fibroblasts
- assayOverview: Ribosomal profiling: translational efficiency in TGFβ-treated fibroblasts
- Type: cell-based
- conditionDescription: ENSG00000100097; TGFβ-treated fibroblasts
parameter: renormalizing the translational profile of LGALS1

compound: COC(=O)[C@H]1[C@@H](O)[C@@]2(O)c3c(OC)cc(O[C@@H]4O[C@@H]([C@H](O)CO)CO[C@H]4OC)cc3O[C@@]2(c2ccc(OC)cc2)[C@@H]1c1ccccc1 [Silvestrol]
valueReported: − (− = <0.9)
--
compound: Cc1cc(C2CCCCC2)n(O)c(=O)c1.NCCO [CPX, ciclopirox oloamine]
valueReported: − (− = <0.9)
--
compound: CC(C=CC(=O)NO)=CC(C)C(=O)c1ccc(N(C)C)cc1 (centres unmarked) [TSA]
valueReported: − (− = <0.9)
--
compound: CC(C)n1nc(-c2cc3cc(O)ccc3[nH]2)c2c(N)ncnc21 [PP242]
valueReported: − (− = <0.9)

====

- Test system: normal human lung fibroblasts
- assayOverview: Western blot of α-smooth muscle actin (α-SMA) in TGFβ-treated fibroblasts
- Assay type: cell-based
- conditionDescription: fibroblasts treated with TGFβ, 24 hours, western blot
parameter: % Renormalization α-SMA

Observe how each entry below is paired with its result.
compound: CC(C)CCN1c2nc(Nc3cc(F)c(O)c(F)c3)ncc2N(C)C(=O)C1C (centres unmarked) [BI-D1870]
parameter: % Renormalization α-SMA
valueReported: ++ (++ = 30-60%)
--
compound: CC(C)n1nc(-c2cc3cc(O)ccc3[nH]2)c2c(N)ncnc21 [PP242]
parameter: % Renormalization α-SMA
valueReported: +++ (+++ = >60%)
--
compound: COC(=O)c1ccc2c(c1)NC(=O)/C2=C(\Nc1ccc(N(C)C(=O)CN2CCN(C)CC2)cc1)c1ccccc1 [Nintedanib]
parameter: % Renormalization α-SMA
valueReported: +++ (+++ = >60%)
--
compound: O=C(Nc1ccc(Cl)cc1)Nc1ccc2nonc2c1 [BOCPU]
parameter: % Renormalization α-SMA
valueReported: +++ (+++ = >60%)
--
compound: COC(=O)[C@H]1[C@@H](O)[C@@]2(O)c3c(OC)cc(O[C@@H]4O[C@@H]([C@H](O)CO)CO[C@H]4OC)cc3O[C@@]2(c2ccc(OC)cc2)[C@@H]1c1ccccc1 [Silvestrol]
parameter: % Renormalization α-SMA
valueReported: +++ (+++ = >60%)
--
compound: Cc1cc(C2CCCCC2)n(O)c(=O)c1.NCCO [CPX, ciclopirox oloamine]
parameter: % Renormalization α-SMA
valueReported: +++ (+++ = >60%)

Task: Recall the reported % Renormalization α-SMA of CC(C=CC(=O)NO)=CC(C)C(=O)c1ccc(N(C)C)cc1 (centres unmarked) [TSA] when tested on normal human lung fibroblasts.
Result: ++ (++ = 30-60%)
